B1: EEHEE_rd4_0003 (parent)
chain: KKVTINGVEIKFNNPEEAVKFALELAKRLNLRIEFHGDQIKIE

# Variants of: B1
# experimental details: folding stability dG (cDNA display proteolysis); higher = more stable
# study conditions: PBS, room temperature
If the reported folding stability dG equals or exceeds 2 kcal/mol, assign Criterion met. If not, assign Criterion not met.

I10Q; Criterion not met
T4F; Criterion met
L29M; Criterion met

Kindly determine if folding stability dG recorded for N13T is above or exactly 2 kcal/mol.
Criterion met

Hi team, for N6W , is the recorded folding stability dG at or above 2 kcal/mol?
Criterion met

Can F21H be said to have folding stability dG at or above 2 kcal/mol?
Criterion not met

Does the variant I42E have recorded folding stability dG that is 2 kcal/mol or more?
Criterion not met

Hi team, for V8Q , is the recorded folding stability dG at or above 2 kcal/mol?
Criterion met

Threshold query (folding stability dG >= 2 kcal/mol) on I42T
Criterion not met

Confirm if folding stability dG reported for the variant V3L is 2 kcal/mol or above.
Criterion met

# bool: folding stability dG of D38A >= 2 kcal/mol
Criterion met

Has Q39K a recorded folding stability dG greater than or equal to 2 kcal/mol?
Criterion met

Has V8K a recorded folding stability dG greater than or equal to 2 kcal/mol?
Criterion met

Hi, just wondering whether G7N shows folding stability dG of 2 kcal/mol or higher.
Criterion met

Does folding stability dG meet or surpass 2 kcal/mol for K27E ?
Criterion met

Quick check, folding stability dG >= 2 kcal/mol? N6M
Criterion met

Would you say F35A shows folding stability dG at minimum 2 kcal/mol?
Criterion not met

Quick check, folding stability dG >= 2 kcal/mol? D38Q
Criterion met

Is it the case that I10Y has folding stability dG reaching or exceeding 2 kcal/mol?
Criterion met

Check if folding stability dG >= 2 kcal/mol (inclusive). Item: I40Q
Criterion not met
